- Tested on: DU-145 prostate
- experimentalProtocol: NCI-60 one-dose screen, 48 h (100 = growth as untreated, 0 = no growth, -100 = all killed)
- assaySetup: 10 µM unless noted
Compounds without any hit were thinned out: in the full panel of roughly 83,000, 20% have a hit.
Threshold rule: growth greater than or equal to 30% is yes; below that, no.

Threshold query (growth >= 30%) on CC(C)(C)C(CCc1ccc(Cl)cc1)N1CCN(C2CCCCC2)CC1 (stereo unspecified)
no

Threshold query (growth >= 30%) on CCCCCCCCn1ccc2cc(NC(=O)Cn3cc(CN4CCCC4)nn3)ccc21
yes

Threshold query (growth >= 30%) on COc1ccc(-c2nc(SC(C)C)nc(NNC(N)=S)c2C#N)cc1
yes

Threshold query (growth >= 30%) on Cc1cc(C)c(-c2c(C)cc(C)cc2CBr)c(CBr)c1
yes

Threshold query (growth >= 30%) on CC1=CN2C(=O)C3C4=C(CCCC4)SC3N=C2CN1c1c(C)cccc1C (stereo unspecified)
yes

Threshold query (growth >= 30%) on COc1cccc(Nc2nccc(Nc3ccc4[nH]ncc4c3)n2)c1
no

Every entry's value here was drawn from PubChem BioAssay (NCI).
